System: Escherichia coli TOP10
Experimental protocol: shrunken log2 fold change of peptide-encoding DNA abundance (4.5 h post-induction vs induction); higher = less antimicrobial activity (less host growth inhibition)
Recorded conditions: time post-induction: 4.5 h; library: site-saturation at positions 5, 18, 19, 20
Quantity measured: shrunken log2 fold change
I only need the number, thanks.

# Residue string, shrunken log2 fold change
measured = [
    ("RRIRSRPPRLPRPRPRPCDPPRP", 0.0442),
    ("RRIRARPPRLPRPRPRPHEWPRP", 0.311),
    ("RRIRKRPPRLPRPRPRPIYQPRP", -0.0246),
    ("RRIRIRPPRLPRPRPRPWQFPRP", -0.243),
    ("RRIRCRPPRLPRPRPRPDLTPRP", -0.275),
    ("RRIRQRPPRLPRPRPRPRTYPRP", -0.049),
    ("RRIRCRPPRLPRPRPRPDRMPRP", -0.139),
    ("RRIRERPPRLPRPRPRPTDQPRP", -0.127),
    ("RRIRYRPPRLPRPRPRPDMSPRP", -0.0894),
    ("RRIRARPPRLPRPRPRPEYDPRP", 0.695),
]

Now consider a different sequence.
Which shrunken log2 fold change reading was recorded for the sequence RRIRERPPRLPRPRPRPHKWPRP ?
-0.0895

---

Test system: Escherichia coli TOP10
Experimental protocol: shrunken log2 fold change of peptide-encoding DNA abundance (4.5 h post-induction vs induction); higher = less antimicrobial activity (less host growth inhibition)
Recorded conditions: time post-induction: 4.5 h; library: site-saturation at positions 5, 18, 19, 20
shrunken log2 fold change by entry:

The cases that follow already have their shrunken log2 fold change on record.
# Residue string, shrunken log2 fold change
rows = [
    ("RRIRLRPPRLPRPRPRPFTEPRP", -0.163),
    ("RRIRDRPPRLPRPRPRPRARPRP", 0.601),
    ("RRIRNRPPRLPRPRPRPWMKPRP", -0.0173),
]

Here is the next item to consider.
Lab note: need shrunken log2 fold change for RRIRQRPPRLPRPRPRPFAHPRP on Escherichia coli TOP10, anyone have it?
-0.0959

---

Tested on: Escherichia coli TOP10;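 also: peptides expressed intracellularly from a pBAD plasmid library in pooled LB shake-flask culture, induced with 0.3% L-arabinose, DNA abundance read by NGS, three biological replicates, DESeq2 with apeglm shrinkage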
Experimental protocol: shrunken log2 fold change of peptide-encoding DNA abundance (4.5 h post-induction vs induction); higher = less antimicrobial activity (less host growth inhibition)
Recorded conditions: time post-induction: 4.5 h; library: site-saturation at positions 5, 18, 19, 20
Quantity measured: shrunken log2 fold change
Reply with the value as a number alone.

Below: 5 sequences and their reported shrunken log2 fold change.
# Residue string, Quantity measured, Number
rows = [
    ("RRIRYRPPRLPRPRPRPQNTPRP", "shrunken log2 fold change", -1.07),
    ("RRIRERPPRLPRPRPRPTNMPRP", "shrunken log2 fold change", -0.568),
    ("RRIRERPPRLPRPRPRPKATPRP", "shrunken log2 fold change", 0.205),
    ("RRIRGRPPRLPRPRPRPYDCPRP", "shrunken log2 fold change", -0.147),
    ("RRIRMRPPRLPRPRPRPSDQPRP", "shrunken log2 fold change", -0.198),
]

Consider the sequence RRIRERPPRLPRPRPRPFMAPRP and give its measured shrunken log2 fold change.
-0.891

# input sequence: RRIRSRPPRLPRPRPRPWSSPRP ; wanted: its shrunken log2 fold change
0.0531

Hello, the source for this data is the supplement of paper PMC9112550, in case you need it.
